tgt: Tyrosine-protein kinase receptor UFO (Homo sapiens)
condition-label: at 1 µM
Description: GSK_PKIS: AXL mean inhibition at 1 uM [Nanosyn]
readout-type: inhibition (%)
Numbers only, in %.

Answered cases to consult:
C#Cc1cccc(Nc2ncnc3ccc(OCCCCNCCS(C)(=O)=O)cc23)c1: -7.98
CCS(=O)(=O)c1ccc(OC)c(Nc2ncc(-c3cccc(-c4ccccc4F)c3)o2)c1: 2.28

Now for another entry.
// fetch inhibition given entry "CCc1ccc(Oc2nccc(-c3c(-c4ccc(F)cc4)ncn3C3CCNCC3)n2)cc1"
-3.44

###

tgt: Testis-specific serine/threonine-protein kinase 1 (Homo sapiens)
condition-label: at 0.1 µM
readout-type: inhibition (%)
One number for each entry, in %.

In the examples that follow, each entry is paired with its recorded inhibition.
COc1cc(Nc2ncc(-c3ccccc3)o2)cc(OC)c1OC: 0.03
NC(=O)c1cc(-c2ccc(F)cc2)cc(-c2ccncc2)c1N: 3.98
CCN(CC)Cc1ccc(Nc2nccc(-c3cnn4ncccc34)n2)cc1: 5.5

Your task in this section: give inhibition for each listed record.
1. COc1ccc2cc(-c3c(-c4ccncc4)nc(-c4ccc([S+](C)[O-])cc4C)n3C)ccc2c1 (centres undefined)
2. O=C(Nc1n[nH]c2cc(-c3ccccc3)ccc12)C1CC1
3. Cc1ccc(NC(=O)c2ccoc2)cc1-c1ccc(C(=O)NCC2CC2)cc1
4. c1ccc(Oc2ccc(Nc3ncc(-c4ccccc4)o3)cc2)cc1
5. N#Cc1ccc(Oc2nccc(-c3c(-c4ccc(F)cc4)ncn3C3CCNCC3)n2)cc1
6. O=C(Nc1ccc(Oc2ccc3[nH]c(NC(=O)c4ccccc4)nc3c2)cc1)Nc1cc(C(F)(F)F)ccc1F

1. 0.4
2. 2.16
3. 1.46
4. 1.11
5. 3.77
6. 2.04

###

tgt: Ephrin type-B receptor 3 (Homo sapiens)
condition-label: at 1 µM
So I've got a bunch of compounds here, and I need their inhibition values.
Numbers only, in %.

Fc1ccc(-c2ncn(CCCN3CCOCC3)c2-c2ccncc2)cc1: -2.79
O=C1NC(=O)C(c2cccc(Cl)c2)=C1Nc1ccc(Cl)c(C(=O)O)c1: 4.29
O=C(NCC1CC1)c1ccc(-c2cccc(C(=O)NC3CC3)c2)cc1: 2.98
c1ccc(Oc2ccc(Nc3ncc(-c4ccccc4)o3)cc2)cc1: 0.66
Clc1ccc(CNc2nccc(-c3cnn4ncccc34)n2)cc1: 2
N#Cc1ccc(Oc2nccc(-c3c(-c4ccc(F)cc4)ncn3C3CCNCC3)n2)cc1: 5.31
Cc1nnc(-c2ccc(C)c(-c3ccc(C(=O)NCc4ccc(Cl)cc4)cc3)c2)o1: -1.34
CCc1ccc(Oc2nccc(-c3c(-c4ccc(F)cc4)ncn3C3CCNCC3)n2)cc1: 4.56
COc1cc(N2CCN(C(C)C)CC2)ccc1Nc1nc(Nc2ccc(F)cc2C(=O)NC[C@@H](O)CO)c2cc[nH]c2n1: -0.23
C[C@@H](Oc1cc(-n2cnc3ccc(OC4CCN(C)CC4)cc32)sc1C(N)=O)c1ccccc1Cl: -0.38

Batch: inhibition for all items listed.
1. Fc1ccc(-c2ncn(C3CCNCC3)c2-c2ccnc(Oc3ccc(F)c(F)c3)n2)cc1
2. COc1cc2ncn(-c3cc(OCc4cccs4)c(C(N)=O)s3)c2cc1OC
3. O=C(Nc1n[nH]c2nc(-c3ccco3)ccc12)C1CC1
4. COc1cc(Nc2ncc3c(C)nc(-c4cccc(Oc5ccccc5)c4)n3n2)cc(OC)c1OC

1. 1.58
2. -3.49
3. 2.4
4. 1.21
